test system: HOP-62; test: NCI tumour cell line growth inhibition, 48 h
Active and inactive are the calls of the source. No stated cut-off is given here; in the data, active = GI50 up to about 1.1 µM and inactive = higher.
Metric name: GI50

| Compound | Metric name | Readout value |
| --- | --- | --- |
| CC1(C)[C@@H](Cn2cnc3c(O)nc(N)nc32)CC[C@@]1(C)CO | GI50 | > 100 µM (inactive) |
| NS(=O)(=O)c1ccc(/C=C/c2cccc(O)c2)cc1 | GI50 | > 100 µM (inactive) |
| Cc1nc2ccccc2n1Cc1ccc(NC(=S)Nc2ccccc2)cc1 | GI50 | > 100 µM (inactive) |
| Cc1ccc(C(=O)/C=C2/Nc3ccccc3NC2=O)c(C)c1 | GI50 | 5.62 µM (inactive) |
| O=c1[nH]nc(Cc2ccc(Cl)cc2)n1/N=C/c1c[nH]c2ccccc12 | GI50 | > 100 µM (inactive) |
| CCCCCCCC1(c2ccc(N)cc2)CCC(=O)NC1=O (centres undefined) | GI50 | 32.9 µM (inactive) |
| CC(=O)O[C@H]1[C@@H](N2CCN(C)CC2)C[C@H]2[C@@H]3CC=C4C[C@@H](N5CCCC5)CC[C@]4(C)[C@H]3CC[C@@]21C | GI50 | 46.5 µM (inactive) |
| O=C(CC(=O)c1ccccc1)CC(O)(c1ccccc1)c1ccccc1 | GI50 | 3.34 µM (inactive) |
| CCC(CC)(CO)CNc1cc(Cl)nc(N)n1 | GI50 | > 100 µM (inactive) |
| COc1ccc(-c2cc(O)c3cc(OC)c(OC)cc3n2)cc1OC | GI50 | 37.7 µM (inactive) |
| NC(=S)/N=C(/c1nc2ccc(Cl)cc2nc1O)C(O)c1ccccc1Cl (centres undefined) | GI50 | > 100 µM (inactive) |
| NC(=O)NCCCC(NC(=O)OCCCCCCn1ccc(=O)[nH]c1=O)C(=O)O (centres undefined) | GI50 | > 100 µM (inactive) |
| N=c1c2c(ncn1N)Oc1c(c(-c3ccccc3)nn1-c1ccccc1)C2c1ccc(Cl)cc1 (centres undefined) | GI50 | 1.66 µM (inactive) |
| O=C(CNC(=O)c1ccccc1)Oc1c(Cl)c(Cl)c(Cl)c(Cl)c1Cl | GI50 | 38.3 µM (inactive) |
| COC1(Cc2ccccc2)C(=O)c2ccccc2N1C(C)=O (centres undefined) | GI50 | > 100 µM (inactive) |
| O=Cc1c2n(c3ccccc13)N[C@@](Cc1ccc(O)cc1)(C(=O)O)C2 | GI50 | 46.7 µM (inactive) |
| O=NN1CCCS1(=O)=O | GI50 | > 100 µM (inactive) |
| Cc1ccc2nc(-c3ccccc3)cc(=O)n2c1 | GI50 | > 100 µM (inactive) |
| CC(=O)OC(Cc1c(O)c2c(C)cccc2oc1=O)C(C)(C)O (centres undefined) | GI50 | > 100 µM (inactive) |
| O=C1C2Nc3ccccc3SC2C(=O)N1c1ccccc1C(F)(F)F (centres undefined) | GI50 | 25.4 µM (inactive) |
| N#Cc1nn(C2OC(COC(=O)c3ccccc3)C(OC(=O)c3ccccc3)C2OC(=O)c2ccccc2)c2nc[nH]c(=O)c12 (centres undefined) | GI50 | 90.2 µM (inactive) |
| CC(C)OC(=O)c1cc(NC(=O)C(C)(C)C)c(F)cc1Cl | GI50 | > 100 µM (inactive) |
| O=C(Nc1ccc(Cl)c(C(F)(F)F)c1)C(=O)C(C(=O)/C=C/c1ccccc1)C1OC(=O)c2ccccc21 (centres undefined) | GI50 | > 100 µM (inactive) |
| O=[N+]([O-])c1ccc(Cc2nc3ccccc3s2)cc1 | GI50 | > 100 µM (inactive) |
| CC(CC(=O)O)(CC(=O)O)C(=O)O | GI50 | > 100 µM (inactive) |
| COc1cc2cc(C(=O)N3CC(COS(C)(=O)=O)c4ccc(NC(=O)OCc5ccccc5)cc43)[nH]c2c(OC)c1OC (centres undefined) | GI50 | 79.1 µM (inactive) |
| COc1ccc(N2C(=O)C3c4[nH]c5ccccc5c4C4CCC(C(C)C)CC4C3C2=O)cc1 (centres undefined) | GI50 | 33 µM (inactive) |
| COC(=O)C1(F)C(=O)NC(=O)NC1OC (centres undefined) | GI50 | 25.5 µM (inactive) |
| CC1(C)OC(=O)C2(O1)C(=O)C1CCCCC12 (centres undefined) | GI50 | 62.8 µM (inactive) |
| COC(=O)[C@H](Cc1ccccc1)NC(=O)/C(=C/C(C)C)NC(=O)[C@H](CCSC)NC=O | GI50 | > 100 µM (inactive) |
| CCc1cccc(CC)c1NC(=O)C(C#N)C1=C(Cl)C(=O)c2ccccc2C1=O (centres undefined) | GI50 | 14.5 µM (inactive) |
| C=Cc1nc(C#N)c(N)o1 | GI50 | > 100 µM (inactive) |
| Cn1cc2c(n1)c(N/N=C/c1ccccc1)nn1nnnc21 | GI50 | > 100 µM (inactive) |
| COc1cccc(C2c3cc4c(cc3OC(C)(O)C2C)OCO4)c1O (centres undefined) | GI50 | 4.2 µM (inactive) |
| O=S(=O)(Nc1ccc2ccc3cccc4ccc1c2c34)c1ccccc1 | GI50 | 33.3 µM (inactive) |
| Cc1ccc(/C=C2\N=C(N3CCCC(CO)C3)NC2=O)cc1 (centres undefined) | GI50 | > 100 µM (inactive) |
| O=c1c2ccccc2nc(-c2ccccc2)n1NC(=S)Nc1cccc(Cl)c1 | GI50 | 60.3 µM (inactive) |
| OCCCNc1[nH]cnc2nncc1-2 | GI50 | > 100 µM (inactive) |
| CC#N.O[C@@H]1CCCC[C@@H]1O.O[C@@H]1CCCC[C@@H]1O.[TeH2] | GI50 | 41.7 µM (inactive) |
| CC12CCC(C(=O)N3CC=CCC3)(OC1=O)C2(C)C (centres undefined) | GI50 | > 100 µM (inactive) |
| COC(=O)C1=C(c2ccc(Cl)cc2)C(O)NC(NN)=N1 (centres undefined) | GI50 | > 100 µM (inactive) |
| CO/N=C(\C(=O)O/C(=N/C1CCCCC1)NC1CCCCC1)c1csc(NC(c2ccccc2)(c2ccccc2)c2ccccc2)n1 | GI50 | > 10 µM (inactive) |
| CN(C(=O)C1CCCCCC1=O)c1ccccc1Cl (centres undefined) | GI50 | > 100 µM (inactive) |
| Cc1ccc2c(c1)C(c1cccc3ccccc13)OC2=O (centres undefined) | GI50 | 21.4 µM (inactive) |

----------
test system: MOLT-4; experiment: NCI tumour cell line growth inhibition, 48 h
Activity calls are given as the source filed them. Cut-off read from the data, not from the text of the source: active = GI50 up to about 1.1 µM and inactive = higher.
Metric name: GI50

| Compound | Metric name | Readout value |
| --- | --- | --- |
| Cc1ccc(C(=O)/C=C2/Nc3ccccc3NC2=O)c(C)c1 | GI50 | 45.5 µM (inactive) |
| CN(Cc1cnc2nc(N)nc(N)c2n1)c1ccc(C(=O)NC(CCC(=O)NC(CC(P(=O)(O)O)P(=O)(O)O)C(=O)O)C(=O)O)cc1 (centres undefined) | GI50 | > 100 µM (inactive) |
| Cc1cn(CCCC2=NCCCN2)c(=O)[nH]c1=O | GI50 | > 100 µM (inactive) |
| Nc1ccc(Oc2ccc(C3(c4ccc(Oc5ccc(N)cc5)cc4)C4CC5CC(C4)CC3C5)cc2)cc1 | GI50 | 4.27 µM (inactive) |
| COC(=O)Cc1cccc2c(=O)c(S(=O)(=O)NC(=O)Nc3ccc(Cl)cc3)c(-c3ccccc3)oc12 | GI50 | 17.1 µM (inactive) |
| CC(=O)N1NC(c2ccccc2)=CC(=O)/C1=C/C(=O)c1ccccc1 | GI50 | 52.5 µM (inactive) |
| COc1cc2cc(C(=O)N3CC(COS(C)(=O)=O)c4ccc(NC(=O)OCc5ccccc5)cc43)[nH]c2c(OC)c1OC (centres undefined) | GI50 | 28.3 µM (inactive) |
| O=C(Nc1ccc(Cl)c(C(F)(F)F)c1)C(=O)C(C(=O)/C=C/c1ccccc1)C1OC(=O)c2ccccc21 (centres undefined) | GI50 | > 100 µM (inactive) |
| COC(=O)c1c(C(=O)OC)c2ccccn2c1-c1cc(OC)c(Br)c(=O)o1 | GI50 | > 100 µM (inactive) |

----------
tested on: MDA-MB-231; test: NCI tumour cell line growth inhibition, 48 h
Active and inactive are the calls of the source. Cut-off read from the data, not from the text of the source: active = GI50 up to about 1.1 µM and inactive = higher.

| Molecule | GI50 |
| --- | --- |
| O=C(O)Cc1cccc2c1OC(c1ccccc1)C(Cl)(C(=O)c1ccccc1)C2=O (stereo not given) | 18.7 µM (inactive) |
| CC(=O)Nc1ccc(C(=O)NN2C(=O)C(Cl)C2c2cc(Br)ccc2O)cc1 (stereo not given) | 3.6 µM (inactive) |
| CC1=NN(c2nc(N)nc(CS(C)(=O)=O)n2)C(C)(C)C1 | > 100 µM (inactive) |
| O=C(N/N=C/c1ccc([N+](=O)[O-])o1)c1ccc(C(=O)N/N=C/c2ccc([N+](=O)[O-])o2)cc1 | > 100 µM (inactive) |
| O=c1[nH]c(=O)n2n1C1C=CC2CC1 | > 100 µM (inactive) |
| OCCCNc1[nH]cnc2nncc1-2 | > 100 µM (inactive) |
| O=C(CNC(=O)c1ccccc1)Oc1c(Cl)c(Cl)c(Cl)c(Cl)c1Cl | 22.9 µM (inactive) |
| N=C(N)NS(=O)(=O)c1ccc(NC(=O)c2cccc3c(NNc4ccc(S(N)(=O)=O)cc4)c4ccccc4nc23)cc1 | 27.5 µM (inactive) |
| CCN(CC)CCCC(C)Nc1c2ccc(Cl)cc2nc2ccc(OC)cc12 (stereo not given) | 10.1 µM (inactive) |
| CC(=O)N1NC(c2ccccc2)=CC(=O)/C1=C/C(=O)c1ccccc1 | > 100 µM (inactive) |
